Data origin: paper PMC8779334

- Type: physicochemical
- test-parameters: pH 7.4
- Procedure: The lipophilicity (L) of tested radiocompounds, defined as the decimal logarithm (logP) of the partition coefficient (P) of the compound between the two immiscible phases, was determined in the system PBS solution (aqueous phase, polar phase, pH 7.4) and n-octanol (organic, non-polar phase) according to the following formula: L=logP=logAo/Aw where Ao —organic phase radioactivity; Aw —aqueous phase radioactivity. […]
Where a SMILES comes first, the peptide text is derived from it. Side-chain parts run from the residue outwards. [ ]: non-standard residue; d: D form. The star is where a group is joined. DOTA = O=C(O)CN1CCN(CC(=O)O)CCN(CC(=O)*)CCN(CC(=O)O)CC1; hArg = N=C(N)NCCCC[C@H](N)C(=O)O; Dab = NCC[C@H](N)C(=O)O; Ahx = NCCCCCC(=O)O
assay-endpoint: logP ± SD
Give bare numbers.

compound	logP ± SD
N=C(N)NCCCC[C@H](N)C(=O)NCCCC[C@H](N)C(=O)N[C@@H](CCNC(=O)CCCCCNC(=O)CN1CCN(CC(=O)O)CCN(CC(=O)O)CCN(CC(=O)O)CC1)C(=O)N1CCC[C@H]1C(=O)N[C@@H](CCCNC(=N)N)C(=O)O [^177Lu-2, metal not drawn] (H-K(hArg)[Dab]([Ahx-DOTA])PR-OH)	−3.75
CC(C)C[C@H](NC(=O)[C@H](Cc1c[nH]c2ccccc12)NC(=O)[C@@H](NC(=O)[C@H](C)NC(=O)CCCCCNC(=O)CN1CCN(CC(=O)O)CCN(CC(=O)O)CCN(CC(=O)O)CC1)[C@@H](C)O)C(=O)N1CCC[C@H]1C(=O)N1CCC[C@H]1C(=O)N[C@@H](CCCNC(=N)N)C(=O)O [^68Ga-1, [^68Ga]Ga-DOTA-Ahx-A7R, metal not drawn] ({DOTA-Ahx}-ATWLPPR-OH)	−3.92
CC(C)C[C@H](NC(=O)[C@H](Cc1c[nH]c2ccccc12)NC(=O)[C@@H](NC(=O)[C@H](C)NC(=O)CCCCCNC(=O)CN1CCN(CC(=O)O)CCN(CC(=O)O)CCN(CC(=O)O)CC1)[C@@H](C)O)C(=O)N1CCC[C@H]1C(=O)N1CCC[C@H]1C(=O)N[C@@H](CCCNC(=N)N)C(=O)O [^177Lu-1, [^177Lu]Lu-DOTA-Ahx-A7R, metal not drawn] ({DOTA-Ahx}-ATWLPPR-OH)	−3.40

Req: Look up logP ± SD for this compound: N=C(N)NCCCC[C@H](N)C(=O)NCCCC[C@H](N)C(=O)N[C@@H](CCNC(=O)CCCCCNC(=O)CN1CCN(CC(=O)O)CCN(CC(=O)O)CCN(CC(=O)O)CC1)C(=O)N1CCC[C@H]1C(=O)N[C@@H](CCCNC(=N)N)C(=O)O [^68Ga-2, metal not drawn] (H-K(hArg)[Dab]([Ahx-DOTA])PR-OH)
Resp: −4.57
